# CONDITION CONTEXT: human, in vivo, po, 100 mg, Cmax, CSF, single oral dose 100 mg, n = 9
PARAMETER MEASURED: Cmax (ng/mL)
Numbers only, in ng/mL.

Per the records, this molecule ( COc1cc(Nc2c(C#N)cnc3cc(OCCCN4CCN(C)CC4)c(OC)cc23)c(Cl)cc1Cl [Bosutinib, Bosutinib monohydrate] ) has Cmax equal to 0.06

====

# ASSAY INFO: Pharmacokinetics: bosutinib concentration in plasma of DLB participants
# Assay type: in vivo, human
# CONDITION CONTEXT: human, po, 100 mg, Tmax, multiple oral doses 100 mg once daily, 12 weeks
PARAMETER MEASURED: Tmax (h)
Numbers only, in h.

The value of Tmax measured for the compound COc1cc(Nc2c(C#N)cnc3cc(OCCCN4CCN(C)CC4)c(OC)cc23)c(Cl)cc1Cl [Bosutinib, Bosutinib monohydrate] turned out to be 4

====

# CONDITION CONTEXT: human, in vivo, po, 100 mg, Cmax, CSF, single oral dose 100 mg
PARAMETER MEASURED: Cmax (nM)
Give bare numbers, in nM.

molecule COc1cc(Nc2c(C#N)cnc3cc(OCCCN4CCN(C)CC4)c(OC)cc23)c(Cl)cc1Cl [Bosutinib, Bosutinib monohydrate] , Cmax observed: 0.11

====

# CONDITION CONTEXT: human, in vivo, po, 100 mg, Cmax, CSF, multiple oral doses 100 mg once daily, 12 weeks
PARAMETER MEASURED: Cmax (nM)
Numbers only, in nM.

The compound listed as COc1cc(Nc2c(C#N)cnc3cc(OCCCN4CCN(C)CC4)c(OC)cc23)c(Cl)cc1Cl [Bosutinib, Bosutinib monohydrate] shows Cmax equal to 0.94

====

# CONDITION CONTEXT: human, in vivo, po, 200 mg, Tmax, CSF, single oral dose 200 mg
PARAMETER MEASURED: Tmax (h)
Give bare numbers, in h.

Sample COc1cc(Nc2c(C#N)cnc3cc(OCCCN4CCN(C)CC4)c(OC)cc23)c(Cl)cc1Cl [Bosutinib, Bosutinib monohydrate] ; Tmax observed: 4

====

# ASSAY INFO: Pharmacokinetics: bosutinib concentration in plasma of DLB participants
# Type: in vivo, human
# CONDITION CONTEXT: human, oral, Tmax in the current study, between 0 and 4 hours, current study
PARAMETER MEASURED: Tmax

Item: COc1cc(Nc2c(C#N)cnc3cc(OCCCN4CCN(C)CC4)c(OC)cc23)c(Cl)cc1Cl [Bosutinib, Bosutinib monohydrate] | Tmax: 3 to 4 h

====

# CONDITION CONTEXT: human, in vivo, po, 100 mg, Tmax, CSF, multiple oral doses 100 mg once daily, 12 weeks
PARAMETER MEASURED: Tmax (h)
One number for each entry, in h.

The compound COc1cc(Nc2c(C#N)cnc3cc(OCCCN4CCN(C)CC4)c(OC)cc23)c(Cl)cc1Cl [Bosutinib, Bosutinib monohydrate] showed Tmax equal to 3

====

# CONDITION CONTEXT: human, in vivo, po, 100 mg, Cmax, CSF, multiple oral doses 100 mg once daily, 12 weeks, n = 13
PARAMETER MEASURED: Cmax (ng/mL)
One number for each entry, in ng/mL.

For this compound ( COc1cc(Nc2c(C#N)cnc3cc(OCCCN4CCN(C)CC4)c(OC)cc23)c(Cl)cc1Cl [Bosutinib, Bosutinib monohydrate] ), measured Cmax is 0.5
